assay: chemical genetic growth profiling, strain panel (AID 1159580);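 also: tested at 20 µM; growth read once vehicle control cultures reached saturation at 30 °C; lower values mean less growth of the strain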; settings: S. cerevisiae deletion strains, growth OD, locus YLL041C, strain sdh2
Screen size: about 5,500 compounds; about 2,000 (36%) were called active. Inconclusive results (about 18%) are left out. Rule as the data show it: active = normalized growth mostly below about 0.91 (no sharp cut-off); inconclusive = no clear call, values can overlap the other calls; inactive = mostly above about 0.92. The list shows a part of the results.
Outcome codes: YES for active, NO for inactive

COMPOUND | CLASSIFICATION
CCCCC1C(=O)N(c2ccccc2)N(c2ccc(O)cc2)C1=O (stereo not drawn) | NO
C[C@]12CCC3c4ccc(O)cc4CCC3C1CC[C@@H]2O (stereo partly drawn) | NO
CCCC(C)(COC(N)=O)COC(=O)NC(C)C (stereo not drawn) | NO
CCN[C@@H]1C[C@H](N)[C@@H](O[C@H]2OC(CN)=CC[C@H]2N)[C@H](O)[C@H]1OC1OC[C@](C)(O)[C@H](NC)[C@H]1O (stereo partly drawn) | NO
CC(=O)OCC1=C(C(=O)O)N2C(=O)[C@@H](NC(=O)Cc3cccs3)[C@H]2SC1 | NO
CCC(c1ccc(O)cc1)C(CC)c1ccc(O)cc1 (stereo not drawn) | NO
COc1cccc2c(C)cc(=O)[nH]c12 | NO
C=CC1C2=CCOC(=O)C2=COC1OC1OC(CO)C(O)C(O)C1O (stereo not drawn) | NO
C[C@@H]1CC[C@@]2(OC1)O[C@H]1CC3C4CC[C@H]5C[C@@H](O)CC[C@]5(C)C4CC[C@]3(C)[C@H]1[C@@H]2C (stereo partly drawn) | NO
CC(C1OC(C)(C)C(O)C1O)[C@@H]1CC[C@]2(C)C3=CCC4C(C)(C)C(=O)CC[C@]4(C)C3CC[C@@]12C (stereo partly drawn) | NO
CNC(=O)Oc1cccc2c1OC(C)(C)O2 | NO
CN(C)c1ccc2nc3ccc(=[N+](C)C)cc-3sc2c1 | YES
CC/C(=C(/CC)c1ccc(O)cc1)c1ccc(O)cc1 | NO
O=C(Cc1cccs1)NC1C(=O)N2C(C(=O)[O-])=C(C[n+]3ccccc3)CSC12 (stereo not drawn) | NO
CC(CC(O)C1OC1(C)C)[C@@H]1CCC2(C)C3=CCC4C(C)(C)C(=O)CCC4(C)C3CC[C@@]12C (stereo partly drawn) | NO
C[C@@H]([C@H](O)c1ccccc1)N(C)C | NO
CNC(C)C(O)c1ccccc1 (stereo not drawn) | NO
CC1(C)C(=O)C=C[C@@]2(C)C1C[C@@H](O)[C@]1(C)C2CC[C@@]2(C)[C@H](c3ccoc3)OC(=O)[C@H]3O[C@]321 (stereo partly drawn) | NO
COc1ccc(-c2oc3cc(O[C@H]4O[C@H](CO)[C@@H](O)[C@H](O)[C@H]4O)c(OC)c(O)c3c(=O)c2OC)cc1O | NO
Cc1[nH]ccc2c1[nH]c1cc(=O)ccc12 | NO
COc1ccc(Cl)cc1C(=O)NCCc1ccc(S(=O)(=O)NC(=O)NC2CCCCC2)cc1 | NO
C[C@]12C=CC(=O)C=C1CCC1C2[C@@H](O)C[C@@]2(C)C1CC[C@]2(O)C(=O)COP(=O)(O)O (stereo partly drawn) | NO
CC(=O)OC(C)C[N+](C)(C)C (stereo not drawn) | NO
Cc1cc(C2CCCCC2)n(O)c(=O)c1 | YES
O=c1cc(-c2ccc(O)cc2)oc2cc(O[C@@H]3O[C@H](CO)[C@@H](O)[C@H](O)[C@H]3O)cc(O)c12 | NO
COc1ccc(-c2cc(=O)c3c(O)cc(O[C@@H]4O[C@H](CO[C@H]5O[C@H](C)[C@@H](O)[C@H](O)[C@@H]5O)[C@@H](O)[C@H](O)[C@H]4O)cc3o2)cc1O | NO
N#Cc1nn(-c2c(Cl)cc(C(F)(F)F)cc2Cl)c(N)c1S(=O)C(F)(F)F (stereo not drawn) | NO
CCc1cc(C(N)=S)ccn1 | NO
CC1CCC2(OC1)OC1CC3C4CC[C@H]5C[C@@H](O)CC[C@]5(C)C4CC(=O)[C@]3(C)C1C2C (stereo partly drawn) | NO
O=c1c(O)c(-c2ccc(O)cc2O)oc2cc(O)cc(O)c12 | NO
CC1(C)C=CC(=O)[C@@]2(C)C1CC(=O)[C@]1(C)C2CC[C@@]2(C)[C@H](c3ccoc3)OC(=O)C3OC321 (stereo partly drawn) | NO
CO[C@@]1(NC(=O)C(C(=O)O)c2ccc(O)cc2)C(=O)N2C(C(=O)O)=C(CSc3nnnn3C)CO[C@@H]21 (stereo partly drawn) | NO
CC[n+]1c(-c2ccccc2)c2cc(N)ccc2c2ccc(N)cc21 | NO
